Subject Of Test: TRβ (Homo sapiens, UniProt P10828)
Construct: Then 5 μL of 4×TRα-LBD or TRP-LBD
Sequence (P10828 217-461 limits assumed): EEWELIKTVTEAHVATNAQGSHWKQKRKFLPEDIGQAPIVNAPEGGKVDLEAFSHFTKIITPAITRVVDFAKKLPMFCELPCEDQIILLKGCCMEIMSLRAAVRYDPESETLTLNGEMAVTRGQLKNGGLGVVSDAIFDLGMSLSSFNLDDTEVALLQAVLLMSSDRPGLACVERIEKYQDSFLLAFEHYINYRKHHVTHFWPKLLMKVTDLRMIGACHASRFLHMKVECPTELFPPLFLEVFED
Measurement Description: In vitro binding activity, LanthaScreen TR-FRET Thyroid Receptor beta Coactivator Assay
Applied Conditions: TRβ-LBD
Endpoint Name: EC50

Query: Any idea what its EC50 is? The compound is CC(c1ccccc1)n1nc(Oc2c(Cl)cc(-n3nc(C#N)c(=O)[nH]c3=O)cc2Cl)ccc1=O (stereo not shown)
Result: > 10000 nM

Query: Any idea what its EC50 is? The compound is O=c1cnn(-c2cc(Cl)c(Oc3ccc(=O)n(Cc4ccc(F)cc4)c3)c(Cl)c2)c(=O)[nH]1
Result: < 4.6 nM

Query: Any idea what its EC50 is? The compound is N#Cc1nn(-c2cc(Cl)c(Oc3ccc(=O)n(Cc4ccccc4)n3)c(Cl)c2)c(=O)[nH]c1=O
Result: > 10000 nM

Query: Any idea what its EC50 is? The compound is O=c1cnn(-c2cc(Cl)c(Oc3ccc(=O)n(Cc4ccccc4)c3)c(Cl)c2)c(=O)[nH]1
Result: 11 nM

Query: Any idea what its EC50 is? The compound is CCOC(=O)C(C)n1cc(Oc2c(Cl)cc(-n3nc(C#N)c(=O)[nH]c3=O)cc2Cl)ccc1=O (stereo not shown)
Result: 20 nM

Query: Any idea what its EC50 is? The compound is N#Cc1nn(-c2cc(Cl)c(Oc3ccc(=O)n(Cc4ccc(F)c(F)c4)c3)c(Cl)c2)c(=O)[nH]c1=O
Result: 22 nM

Query: Any idea what its EC50 is? The compound is Cc1cc(-n2nc(C#N)c(=O)[nH]c2=O)cc(C)c1Oc1ccc(=O)n(Cc2ccccc2)c1
Result: 367 nM

Query: Any idea what its EC50 is? The compound is N#Cc1nn(-c2cc(Cl)c(Oc3ccc(=O)n(CC4CCOCC4)c3)c(Cl)c2)c(=O)[nH]c1=O
Result: 140 nM

Query: Any idea what its EC50 is? The compound is N#Cc1nn(-c2cc(Cl)c(Oc3cnc(=O)n(Cc4ccc(F)cc4)c3)c(Cl)c2)c(=O)[nH]c1=O
Result: 7370 nM

Query: Any idea what its EC50 is? The compound is N#Cc1nn(-c2cc(Br)c(Oc3ccc(=O)n(Cc4ccccc4)c3)c(Br)c2)c(=O)[nH]c1=O
Result: 17 nM

Query: Any idea what its EC50 is? The compound is N#Cc1nn(-c2cc(Cl)c(Oc3ccc(=O)n(CCO)c3)c(Cl)c2)c(=O)[nH]c1=O
Result: 1520 nM

Query: Any idea what its EC50 is? The compound is N#Cc1nn(-c2cc(Cl)c(Oc3ccc(=O)n(Cc4ccc(OC(F)(F)F)cc4)c3)c(Cl)c2)c(=O)[nH]c1=O
Result: 1340 nM

These entries and their values trace back to patent US12617769B2.
